biological target: Collagenase 3 (Homo sapiens, UniProt P45452)
pIC50: −log10 of the molar value. Non-standard residues stand in square brackets, D forms with d. Residues, ends and D or L forms follow the SMILES beside them. *: point of attachment. Benzoyl(4-OPh(4-CONH2)) = NC(=O)c1ccc(Oc2ccc(C(=O)*)cc2)cc1; Benzenesulfonyl(4-OPh) = O=S(=O)(c1ccc(Oc2ccccc2)cc1)*; Benzenesulfonyl(4-Ph) = O=S(=O)(c1ccc(-c2ccccc2)cc1)*; NMeI = CC[C@H](C)[C@H](NC)C(=O)O; NMeE = CN[C@@H](CCC(=O)O)C(=O)O; β3hP = O=C(O)C[C@@H]1CCCN1; Orn = NCCC[C@H](N)C(=O)O; Dab = NCC[C@H](N)C(=O)O; Dap = NC[C@H](N)C(=O)O; Ahx = NCCCCCC(=O)O; GABA = NCCCC(=O)O; βAla = NCCC(=O)O
Decide by pIC50: equal to or exceeding 6 means 1.0, less means 0.0.

>  <COMPOUND>
CC(C)C[C@H](NC(=O)[C@H](CCN)NC(=O)[C@H](CC(=O)O)NC(=O)[C@H](CC(N)=O)NC(=O)CCCCCNC(=O)c1ccc(Oc2ccc(C(N)=O)cc2)cc1)C(=O)N(C)[C@@H](CCC(=O)O)C(=O)N1CCC[C@H]1CC(N)=O ({Benzoyl(4-OPh(4-CONH2))-Ahx}-ND[Dab]L[NMeE][β3hP]-NH2)

>  <CLASS>
1.0

$$$$
>  <COMPOUND>
CSCC[C@H](NC(=O)[C@H](CC(C)C)NC(=O)[C@H](C)NC(=O)[C@H](CC(=O)O)NC(=O)[C@H](CC(N)=O)NC(=O)CCNS(=O)(=O)c1ccc(-c2ccccc2)cc1)C(=O)N1CCC[C@H]1C(N)=O ({Benzenesulfonyl(4-Ph)-βAla}-NDALMP-NH2)

>  <CLASS>
0.0

$$$$
>  <COMPOUND>
CC[C@H](C)[C@@H](C(=O)N1CCC[C@H]1CC(N)=O)N(C)C(=O)[C@H](CC(C)C)NC(=O)[C@H](CCN)NC(=O)[C@H](CC(=O)O)NC(=O)[C@H](CC(N)=O)NC(=O)CCCNS(=O)(=O)c1ccc(Oc2ccccc2)cc1 ({Benzenesulfonyl(4-OPh)-GABA}-ND[Dab]L[NMeI][β3hP]-NH2)

>  <CLASS>
1.0

$$$$
>  <COMPOUND>
CC[C@H](C)[C@@H](C(=O)N1CCC[C@H]1CC(N)=O)N(C)C(=O)[C@H](CC(C)C)NC(=O)[C@H](CCCN)NC(=O)[C@H](CC(=O)O)NC(=O)[C@H](CC(N)=O)NC(=O)CCCNS(=O)(=O)c1ccc(Oc2ccccc2)cc1 ({Benzenesulfonyl(4-OPh)-GABA}-ND[Orn]L[NMeI][β3hP]-NH2)

>  <CLASS>
1.0

$$$$

# next compound below
(Q) Decide: pIC50 of CC[C@H](C)[C@@H](C(=O)N1CCC[C@H]1CC(N)=O)N(C)C(=O)[C@H](CC(C)C)NC(=O)[C@H](CN)NC(=O)[C@H](CC(=O)O)NC(=O)[C@H](CC(N)=O)NC(=O)CCCNS(=O)(=O)c1ccc(Oc2ccccc2)cc1 ({Benzenesulfonyl(4-OPh)-GABA}-ND[Dap]L[NMeI][β3hP]-NH2) >= 6?
(A) 1.0

====

test: Metabolic stability in human serum assessed as parent compound remaining incubated for 6 hrs by LC-MS/MS analysis; assay type: ADME, cell-free; conditions: read-out: Stability
Non-standard residues stand in square brackets, D forms with d. Residues, ends and D or L forms follow the SMILES beside them. *: point of attachment. Benzoyl(4-OPh(4-CONH2)) = NC(=O)c1ccc(Oc2ccc(C(=O)*)cc2)cc1; NMeE = CN[C@@H](CCC(=O)O)C(=O)O; β3hP = O=C(O)C[C@@H]1CCCN1; Dab = NCC[C@H](N)C(=O)O; Ava = NCCCCC(=O)O
ASSAY READOUT: remaining at 6 h (%)
Your answer should be a plain number; it is taken to be in %.

# remaining at 6 h (compound: CC(C)C[C@H](NC(=O)[C@H](CCN)NC(=O)[C@H](CC(=O)O)NC(=O)[C@H](CCC(=O)O)NC(=O)CCCCNC(=O)c1ccc(Oc2ccc(C(N)=O)cc2)cc1)C(=O)N(C)[C@@H](CCC(=O)O)C(=O)N1CCC[C@H]1CC(N)=O ({Benzoyl(4-OPh(4-CONH2))-Ava}-ED[Dab]L[NMeE][β3hP]-NH2) ) is 110

====

These records show pIC50 for UniProtKB P45452.
Non-standard residues stand in square brackets, D forms with d. Residues, ends and D or L forms follow the SMILES beside them. *: point of attachment. Benzenesulfonyl(4-OPh) = O=S(=O)(c1ccc(Oc2ccccc2)cc1)*; NMeL = CN[C@@H](CC(C)C)C(=O)O; NMeM = CN[C@@H](CCSC)C(=O)O; GABA = NCCCC(=O)O
Quick note: pIC50 values are minus log10 of concentrations in mol/L.

>  <MOLECULE>
CSCC[C@@H](C(=O)N1CCC[C@H]1C(N)=O)N(C)C(=O)[C@H](CC(C)C)NC(=O)[C@H](C)NC(=O)[C@H](CC(=O)O)NC(=O)[C@H](CC(N)=O)NC(=O)CCCNS(=O)(=O)c1ccc(Oc2ccccc2)cc1 ({Benzenesulfonyl(4-OPh)-GABA}-NDAL[NMeM]P-NH2)

>  <TGT>
UniProtKB P45452

>  <pIC50>
8.15

$$$$

Note: attention shifts to another entry.
The molecule CC(C)C[C@H](NC(=O)[C@H](C)NC(=O)[C@H](CC(=O)O)NC(=O)[C@H](CC(N)=O)NC(=O)CCCNS(=O)(=O)c1ccc(Oc2ccccc2)cc1)C(=O)N(C)[C@@H](CC(C)C)C(=O)N1CCC[C@H]1C(N)=O ({Benzenesulfonyl(4-OPh)-GABA}-NDAL[NMeL]P-NH2) , tested on UniProtKB P45452, showed pIC50 of 8.04

====

assay: Solubility of the compound in acetate buffer at pH 4.0 by HPLC analysis; assay type: physicochemical
Non-standard residues stand in square brackets, D forms with d. Residues, ends and D or L forms follow the SMILES beside them. *: point of attachment. Benzoyl(4-OPh(4-CONH2)) = NC(=O)c1ccc(Oc2ccc(C(=O)*)cc2)cc1; NMeE = CN[C@@H](CCC(=O)O)C(=O)O; β3hP = O=C(O)C[C@@H]1CCCN1; Dab = NCC[C@H](N)C(=O)O; Ava = NCCCCC(=O)O
ASSAY READOUT: solubility

# solubility (compound: CC(C)C[C@H](NC(=O)[C@H](CCN)NC(=O)[C@H](CC(=O)O)NC(=O)[C@H](CCC(=O)O)NC(=O)CCCCNC(=O)c1ccc(Oc2ccc(C(N)=O)cc2)cc1)C(=O)N(C)[C@@H](CCC(=O)O)C(=O)N1CCC[C@H]1CC(N)=O ({Benzoyl(4-OPh(4-CONH2))-Ava}-ED[Dab]L[NMeE][β3hP]-NH2) ) is > 18.2 mg/mL

====

organism: Homo sapiens; assay: Selectivity ratio of IC50 for recombinant human MMP12 to IC50 for recombinant human MMP2
Non-standard residues stand in square brackets, D forms with d. Residues, ends and D or L forms follow the SMILES beside them. *: point of attachment. Benzenesulfonyl(4-OPh) = O=S(=O)(c1ccc(Oc2ccccc2)cc1)*; Benzenesulfonyl(4-Ph) = O=S(=O)(c1ccc(-c2ccccc2)cc1)*; Benzoyl(4-OPh) = O=C(c1ccc(Oc2ccccc2)cc1)*; NMeI = CC[C@H](C)[C@H](NC)C(=O)O; NMeE = CN[C@@H](CCC(=O)O)C(=O)O; NMeL = CN[C@@H](CC(C)C)C(=O)O; NMeV = CN[C@H](C(=O)O)C(C)C; β3hP = O=C(O)C[C@@H]1CCCN1; Dab = NCC[C@H](N)C(=O)O; GABA = NCCCC(=O)O; βAla = NCCC(=O)O
ASSAY READOUT: Ratio IC50
Please give the numeric answer without any surrounding text.

Some molecules with recorded Ratio IC50:
>  <MOLECULE>
CC[C@H](C)[C@@H](C(=O)N1CCC[C@H]1C(N)=O)N(C)C(=O)[C@H](CC(C)C)NC(=O)[C@H](C)NC(=O)[C@H](CC(=O)O)NC(=O)[C@H](CC(N)=O)NC(=O)CCCNS(=O)(=O)c1ccc(Oc2ccccc2)cc1 ({Benzenesulfonyl(4-OPh)-GABA}-NDAL[NMeI]P-NH2)

>  <Ratio IC50>
186

$$$$
>  <MOLECULE>
CC(C)C[C@H](NC(=O)[C@H](C)NC(=O)[C@H](CC(=O)O)NC(=O)[C@H](CC(N)=O)NC(=O)CCCNS(=O)(=O)c1ccc(Oc2ccccc2)cc1)C(=O)N(C)[C@@H](CC(C)C)C(=O)N1CCC[C@H]1C(N)=O ({Benzenesulfonyl(4-OPh)-GABA}-NDAL[NMeL]P-NH2)

>  <Ratio IC50>
62

$$$$
>  <MOLECULE>
CSCC[C@H](NC(=O)[C@H](CC(C)C)NC(=O)[C@H](C)NC(=O)[C@H](CC(=O)O)NC(=O)[C@H](CC(N)=O)NC(=O)CCNS(=O)(=O)c1ccc(Oc2ccccc2)cc1)C(=O)N1CCC[C@H]1C(N)=O ({Benzenesulfonyl(4-OPh)-βAla}-NDALMP-NH2)

>  <Ratio IC50>
51

$$$$
>  <MOLECULE>
CC(C)C[C@H](NC(=O)[C@H](CCN)NC(=O)[C@H](CC(=O)O)NC(=O)[C@H](CC(N)=O)NC(=O)CCCNC(=O)c1ccc(Oc2ccccc2)cc1)C(=O)N(C)[C@@H](CCC(=O)O)C(=O)N1CCC[C@H]1CC(N)=O ({Benzoyl(4-OPh)-GABA}-ND[Dab]L[NMeE][β3hP]-NH2)

>  <Ratio IC50>
27200

$$$$
>  <MOLECULE>
CSCC[C@H](NC(=O)[C@H](CC(C)C)NC(=O)[C@H](C)NC(=O)[C@H](CC(=O)O)NC(=O)[C@H](CC(N)=O)NC(=O)CCCNS(=O)(=O)c1ccc(-c2ccccc2)cc1)C(=O)N1CCC[C@H]1C(N)=O ({Benzenesulfonyl(4-Ph)-GABA}-NDALMP-NH2)

>  <Ratio IC50>
5

$$$$
>  <MOLECULE>
CSCC[C@H](NC(=O)[C@H](CC(C)C)NC(=O)[C@H](C)NC(=O)[C@H](CC(=O)O)NC(=O)[C@H](CC(N)=O)NC(=O)CNS(=O)(=O)c1ccc(Oc2ccccc2)cc1)C(=O)N1CCC[C@H]1C(N)=O ({Benzenesulfonyl(4-OPh)}-GNDALMP-NH2)

>  <Ratio IC50>
13

$$$$

# Ratio IC50 (molecule: CC(C)C[C@H](NC(=O)[C@H](C)NC(=O)[C@H](CC(=O)O)NC(=O)[C@H](CC(N)=O)NC(=O)CCCNS(=O)(=O)c1ccc(Oc2ccccc2)cc1)C(=O)N(C)[C@H](C(=O)N1CCC[C@H]1C(N)=O)C(C)C ({Benzenesulfonyl(4-OPh)-GABA}-NDAL[NMeV]P-NH2) ) is 282
